- target.entity: hGLP-1R (Homo sapiens, UniProt P43220)
- Sequence (P43220 24-463): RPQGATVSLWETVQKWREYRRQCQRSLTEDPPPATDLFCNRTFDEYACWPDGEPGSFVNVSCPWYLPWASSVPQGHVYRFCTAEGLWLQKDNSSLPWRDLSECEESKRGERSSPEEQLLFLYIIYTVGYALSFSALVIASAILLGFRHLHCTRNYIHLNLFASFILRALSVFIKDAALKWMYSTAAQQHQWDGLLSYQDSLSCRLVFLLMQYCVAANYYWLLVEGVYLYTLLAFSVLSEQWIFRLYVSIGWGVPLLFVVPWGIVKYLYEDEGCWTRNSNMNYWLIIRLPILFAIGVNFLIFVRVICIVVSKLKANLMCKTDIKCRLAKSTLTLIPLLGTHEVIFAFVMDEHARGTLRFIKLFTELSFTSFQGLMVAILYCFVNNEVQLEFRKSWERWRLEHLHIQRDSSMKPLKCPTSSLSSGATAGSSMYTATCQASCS
- test.protocol: cell-based or functional assay
Starred links: 1 amine or outer side, 2 acyl side, 3 side chain; linkers in the order of their positions; H or OH if unused. Non-standard residues stand in square brackets, D forms with d. Groups on a side chain read outwards from the residue. No end group written: not given here. *: point of attachment. C20 diacid = O=C(O)CCCCCCCCCCCCCCCCCCC(=O)*; γGlu = O=C(O)[C@H](CCC(=O)[*:2])N[*:1]; αMeL = CC(C)C[C@](C)(N)C(=O)O; AEEA = NCCOCCOCC(=O)O; Aib = CC(C)(N)C(=O)O
value.kind: Relative cAMP EC50 (nM)
Give bare numbers, in nM.

binder	Relative cAMP EC50 / nM
YXQGTXTSDXXIXLDXKAQXEFIEXLIEGGPSSGAPPPSGGGE (Non-natural residues; K acylated AEEA-(γGlu)2-C18 diacid; C-terminal amide; synthetic construct; SITE 2: note = 2-Aminoisobutyric Acid; SITE 6: note = alpha-methyl-2-fluoro-L-phenylalanine; SITE 10: note = 3-(4-Pyridyl)-L-alanine; SITE 11: note = alpha-methyl-L-serine; SITE 13: note = alpha-methyl-leucine; SITE 16: note = L-ornithine; SITE 17: note = Lysine is chemically mo) [Example 1180]	0.445
Y[Aib]QGTFTSDYSI[αMeL]LDKQAAK([AEEA-AEEA-γGlu-C20 diacid])QFIEWLIEGGPSSGEPPPGEG-NH2 [Example 318]	0.698

### Prompt Given the binder YXQGTFTSDFSXXLDKKAQXAFIEYLLEXGPSSGAPPPSGX (synthetic construct; SITE 2: note = 2-Aminoisobutyric Acid; SITE 12: note = L-ornithine; SITE 13: note = alpha-methyl-leucine; SITE 17: note = Lysine is chemically modified through conjugation of the epsilon-amino group of the Lysine side chain with (gamma-Glu)-(2-[2-(2-Amino-ethoxy)-ethoxy]-acetyl)) [Example 277] , what is its reported Relative cAMP EC50?
### Response 5.56
